Entry source: PubChem BioAssay AID1963448

test system: 616215-338-R-J1-PDC complex spheroid growth, % test/control; test: Anticancer human tumor 616215-338-R-J1-PDC patient-derived colon adenocarcinoma cell line growth inhibition [Asc]; conditions: second compound 0.3 µM; first compound 0.00316 µM; hits give low values;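 also: spheroids exposed to agents for seven days before readout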
Decide using viability, T/C alone. Strictly below 70%: yes. Equal to or above 70%: no.

compound	label
COc1c(OCCCN2CCOCC2)ccc2c3n(c(=NC(=O)c4cnc(N)nc4)nc12)CCN3 + CCN1C(C(=O)NC23CCC(C(=O)O)(CC2)CC3)C(c2cccc(Cl)c2F)C2(C(=O)Nc3cc(Cl)ccc32)C12CCCCC2	yes

State whether 70% exceeds viability, T/C recorded for CNC(C)C(=O)NC1CN(S(=O)(=O)c2cccc(S(=O)(=O)N3CCC4CCC(C(=O)NC(c5ccccc5)c5ccccc5)N4C(=O)C(NC(=O)C(C)NC)C3)c2)CCC2CCC(C(=O)NC(c3ccccc3)c3ccccc3)N2C1=O (stereo unspecified) + CCN1C(C(=O)NC23CCC(C(=O)O)(CC2)CC3)C(c2cccc(Cl)c2F)C2(C(=O)Nc3cc(Cl)ccc32)C12CCCCC2 .
no

State whether 70% exceeds viability, T/C recorded for CCN1CCN(Cc2ccc(Nc3ncc(F)c(-c4cc(F)c5nc(C)n(C(C)C)c5c4)n3)nc2)CC1 + CCN1C(C(=O)NC23CCC(C(=O)O)(CC2)CC3)C(c2cccc(Cl)c2F)C2(C(=O)Nc3cc(Cl)ccc32)C12CCCCC2 .
yes

State whether 70% exceeds viability, T/C recorded for O=C(c1ccc(F)c(F)c1Nc1ccc(I)cc1F)N1CC(O)([C@@H]2CCCCN2)C1 + CCN1C(C(=O)NC23CCC(C(=O)O)(CC2)CC3)C(c2cccc(Cl)c2F)C2(C(=O)Nc3cc(Cl)ccc32)C12CCCCC2 .
yes

State whether 70% exceeds viability, T/C recorded for NC1CCC(NC2CC2c2ccccc2)CC1 (stereo unspecified) + CCN1C(C(=O)NC23CCC(C(=O)O)(CC2)CC3)C(c2cccc(Cl)c2F)C2(C(=O)Nc3cc(Cl)ccc32)C12CCCCC2 .
no

State whether 70% exceeds viability, T/C recorded for Cn1ncnc1[C@H]1c2n[nH]c(=O)c3cc(F)cc(c23)N[C@@H]1c1ccc(F)cc1 + CCN1C(C(=O)NC23CCC(C(=O)O)(CC2)CC3)C(c2cccc(Cl)c2F)C2(C(=O)Nc3cc(Cl)ccc32)C12CCCCC2 .
yes
